Cited source for all entries: ChEMBL document CHEMBL4414644

Experiment: Cytotoxicity in human HepDE19 cells assessed as reduction in cell viability incubated for 5 days by CCK8 assay
Format: cell-based
For each record, write down the corresponding CC50 at 120 h.
Please reply with the bare figure in µM and do not write the unit itself.

q: Name the reported CC50 at 120 h value associated with the molecule `COC(=O)C1=C(CN2CCOC[C@H]2C(=O)O)NC(c2nccs2)=N[C@H]1c1ccc(Br)c(F)c1`
a: 76

q: Name the reported CC50 at 120 h value associated with the molecule `CCOC(=O)C1=C(CN2CCOC[C@H]2C(=O)O)NC(c2nccs2)=N[C@H]1c1ccc(F)c(F)c1F`
a: 49

q: Name the reported CC50 at 120 h value associated with the molecule `CCOC(=O)C1=C(CN2CCOC[C@H]2C(=O)O)NC(c2nccs2)=N[C@H]1c1ccc(C)c(F)c1`
a: 85

q: Name the reported CC50 at 120 h value associated with the molecule `COC(=O)C1=C(CN2CC(F)(F)C[C@H]2C(=O)O)NC(c2nccs2)=N[C@H]1c1ccc(F)cc1Cl`
a: 65

q: Name the reported CC50 at 120 h value associated with the molecule `CCOC(=O)C1=C(CN2CCOC[C@H]2C(=O)O)NC(c2nccs2)=N[C@H]1c1ccc(Cl)c(F)c1`
a: 24

###

Test: Unbound fraction in human plasma at 1000 nM incubated for 5 hrs by LC-MS/MS analysis detection based equilibrium dialysis assay
Format: ADME, cell-free
experimentalEndpoint: fraction unbound at 5 h, 1 µM
Lab note: record just the number, no unit beside it.

q: Name the reported fraction unbound at 5 h, 1 µM value associated with the molecule `COC(=O)C1=C(CN2CCOC[C@H]2C(=O)O)NC(c2nccs2)=N[C@H]1c1ccc(Cl)c(F)c1`
a: 0.031

###

Assay: Half life in BALB/c mouse at 1 mg/kg, iv by LC-MS/MS analysis
Format: ADME, organism-based
Details: in vivo
experimentalEndpoint: half-life (h)
Please reply with the bare figure in h and do not write the unit itself.

q: Name the reported half-life value associated with the compound `COC(=O)C1=C(CN2CCOC[C@H]2C(=O)O)NC(c2nccs2)=N[C@H]1c1ccc(Cl)c(F)c1`
a: 2.3

###

Experiment: Unbound fraction in mouse plasma at 1000 nM incubated for 5 hrs by LC-MS/MS analysis detection based equilibrium dialysis assay
Assay type: ADME, cell-free
experimentalEndpoint: fraction unbound at 5 h, 1 µM
Lab note: record just the number, no unit beside it.

q: Name the reported fraction unbound at 5 h, 1 µM value associated with the molecule `COC(=O)C1=C(CN2CCOC[C@H]2C(=O)O)NC(c2nccs2)=N[C@H]1c1ccc(Cl)c(F)c1`
a: 0.04

###

Assay: Plasma clearance in BALB/c mouse at 1 mg/kg, iv by LC-MS/MS analysis
Type: ADME, organism-based
experimentalEndpoint: clearance (mL/min/kg)
Please reply with the bare figure in mL/min/kg and do not write the unit itself.

q: Name the reported clearance value associated with the compound `COC(=O)C1=C(CN2CCOC[C@H]2C(=O)O)NC(c2nccs2)=N[C@H]1c1ccc(Cl)c(F)c1`
a: 40.9

###

Assay: Oral bioavailability in BALB/c mouse at 3 mg/kg by LC-MS/MS analysis
Type: ADME, organism-based
Details: in vivo
experimentalEndpoint: bioavailability
The reply must contain the numeric value and, after it, the unit.

q: Name the reported bioavailability value associated with the molecule `COC(=O)C1=C(CN2CCOC[C@H]2C(=O)O)NC(c2nccs2)=N[C@H]1c1ccc(Cl)c(F)c1`
a: 43.1%
